# assay procedure: Cytotoxicity against human THLE-2 cells assessed as cell growth inhibition incubated for 72 hrs by Celltiter-lumi luminescent cell viability assay
# Format: toxicity, cell-based
measured attribute: IC50 at 72 h

- COc1ccc(C(C)(C)c2cc(Cl)c(OCC3CCN(C(=O)CCCCCNc4ccc5c(c4)C(=O)N(C4CCC(=O)NC4=O)C5=O)CC3)c(C#N)c2)cc1 (stereo unspecified): > 10 µM

----------
# System: Protein cereblon/Androgen receptor (Homo sapiens), P10275+Q96SW2 [UNDEFINED MUTATION]
# Sequence (P10275 whole entry, looked up, change not shown, canonical isoform): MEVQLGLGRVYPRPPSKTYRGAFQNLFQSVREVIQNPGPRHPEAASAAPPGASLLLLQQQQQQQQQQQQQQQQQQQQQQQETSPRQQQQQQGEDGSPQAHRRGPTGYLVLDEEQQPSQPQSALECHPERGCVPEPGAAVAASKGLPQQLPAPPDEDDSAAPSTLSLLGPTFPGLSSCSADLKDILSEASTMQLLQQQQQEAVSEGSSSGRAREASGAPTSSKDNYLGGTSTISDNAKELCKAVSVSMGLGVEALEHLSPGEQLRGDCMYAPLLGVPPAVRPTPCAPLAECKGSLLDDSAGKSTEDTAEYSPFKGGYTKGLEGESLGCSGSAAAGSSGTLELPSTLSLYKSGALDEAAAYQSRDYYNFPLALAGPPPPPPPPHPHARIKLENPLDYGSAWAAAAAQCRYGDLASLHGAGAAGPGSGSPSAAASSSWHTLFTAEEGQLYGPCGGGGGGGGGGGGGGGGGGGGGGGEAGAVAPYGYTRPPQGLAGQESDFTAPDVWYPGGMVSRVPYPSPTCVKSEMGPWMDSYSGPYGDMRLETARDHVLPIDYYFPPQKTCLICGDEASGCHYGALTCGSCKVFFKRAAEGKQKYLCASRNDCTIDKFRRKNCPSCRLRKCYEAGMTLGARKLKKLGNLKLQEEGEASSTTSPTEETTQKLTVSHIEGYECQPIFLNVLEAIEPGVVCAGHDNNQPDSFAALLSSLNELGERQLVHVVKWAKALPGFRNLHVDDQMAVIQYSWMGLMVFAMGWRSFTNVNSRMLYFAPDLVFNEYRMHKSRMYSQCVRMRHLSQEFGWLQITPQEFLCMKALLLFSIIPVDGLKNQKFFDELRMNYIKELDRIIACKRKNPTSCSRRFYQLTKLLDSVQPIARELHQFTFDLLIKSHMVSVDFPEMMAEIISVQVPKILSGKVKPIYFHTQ
# Sequence (Q96SW2 whole entry, looked up, change not shown, canonical isoform): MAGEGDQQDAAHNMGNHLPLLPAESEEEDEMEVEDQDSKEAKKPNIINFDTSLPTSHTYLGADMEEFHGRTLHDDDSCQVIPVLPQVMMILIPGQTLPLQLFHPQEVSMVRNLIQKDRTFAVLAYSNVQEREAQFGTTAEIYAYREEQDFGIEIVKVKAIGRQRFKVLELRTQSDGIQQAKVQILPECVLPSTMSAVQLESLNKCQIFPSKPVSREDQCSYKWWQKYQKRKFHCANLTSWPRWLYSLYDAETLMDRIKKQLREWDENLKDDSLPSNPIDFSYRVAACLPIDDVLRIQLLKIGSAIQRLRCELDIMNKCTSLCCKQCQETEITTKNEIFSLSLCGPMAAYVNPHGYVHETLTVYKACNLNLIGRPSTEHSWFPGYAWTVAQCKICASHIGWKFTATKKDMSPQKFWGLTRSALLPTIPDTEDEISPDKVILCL
# assay procedure: PROTAC activity at CRBN/Androgen receptor splice variant 7 in human 22Rv1 cells assessed as induction of AR-V7 degradation at 0.1 uM incubated for 24 hrs by Western blot analysis relative to control
# Format: cell-based
measured attribute: Activity (%)

- CC(C)(c1ccc(OCC2CCN(C(=O)CCCCCNc3ccc4c(c3)C(=O)N(C3CCC(=O)NC3=O)C4=O)CC2)cc1)c1ccc(OC[C@H](O)CCl)cc1 (stereo not given in full): 53.2
- CC(C)(c1ccc(OCc2ccccc2)cc1)c1cc(Cl)c(OCC2CCN(C(=O)CCCCCNc3ccc4c(c3)C(=O)N(C3CCC(=O)NC3=O)C4=O)CC2)c(C#N)c1 (stereo not given): 58.5
- COc1ccc(C(C)(C)c2cc(Cl)c(OCC3CCN(C(=O)CCCCCNc4ccc5c(c4)C(=O)N(C4CCC(=O)NC4=O)C5=O)CC3)c(Cl)c2)cc1 (stereo not given): 57.3
- CC(C)(c1ccc(OCC2CCOCC2)cc1)c1cc(Cl)c(OCC2CCN(C(=O)CCCCCNc3ccc4c(c3)C(=O)N(C3CCC(=O)NC3=O)C4=O)CC2)c(C#N)c1 (stereo not given): 83.9

// data source = ChEMBL document CHEMBL6177998
